System: human monoclonal antibody CRJB
Type: binding
experimental endpoint: Binding of CRJB (10 μg/ml) to looped/cyclic peptide (PEPSCAN-ELISA signal)
Please give the numeric answer without any surrounding text.

# Binding of CRJB (10 μg/ml) to looped/cyclic peptide (PEPSCAN-ELISA signal) lookup, item `LDPYDRSLHSRVFPS` 83

Next record, please: `AENYTNFVGYVTTTF` 68

// repeat for `CDIFTNSRGKRASKG` and report 90

And for `ENPRLGMSCDIFTNS` ? 88

Same lookup for `DYTIWMPENPRLGMS` , please. 66

Cool, now `PYDRSLHSRVFPSGK` 90

Moving on to `AAYNWKMAGDPRYEE` 90

For `PTPDACRAAYNWKMA` then? 112

What do we get for `LVIISPSVADLDPYD` ? 102
